Test system: Caco-2 cell monolayers
method.summary: Caco-assay: transport across Caco-2 cell monolayers
Format: in vitro ADME, human
study.conditions: first series, first value
Method: Transport of the compounds WX-508, WXC-316, WXC-318, WXC-324, WXC-340, WX-532, WX-538, WX-550 and WX-582 across Caco-2 cell monolayers was investigated. In this experiment the bioavailability of the said compounds after oral administration was assessed. […] The transepithelial electric resistance (TEER) is measured before and after equilibration using a Milicell ERS meter which was connected to a pair of electrodes in order to ensure the integrity of the monolayers formed on the filters. […]
Counter-ions that a name gives are not always drawn.
recorded.endpoint: Caco-2 assay % basolateral (%)
Numeric only. Scale: %

Solved cases (3 shown):
Note down Caco-2 assay % basolateral recorded for CN(CC(=O)NCc1ccc(NC(=N)N)cc1)C(=O)C(CO)NS(=O)(=O)Cc1ccccc1 (stereo not shown)
0.2

Note down Caco-2 assay % basolateral recorded for N=C(N)Nc1ccc(CNC(=O)CNC(=O)[C@@H](CO)NS(=O)(=O)Cc2ccccc2)cc1 [WX-508, hydrochloride]
0.2

Note down Caco-2 assay % basolateral recorded for N=C(N)Nc1ccc(CNC(=O)CNC(=O)C(CO)NS(=O)(=O)Cc2ccc(Cl)cc2)cc1 (stereo not shown) [WX-C340, hydrochloride]
2.4

New cases:
Note down Caco-2 assay % basolateral recorded for N=C(N)Nc1ccc(CNC(=O)CNC(=O)C(CO)NS(=O)(=O)Cc2cccc([N+](=O)[O-])c2)cc1 (stereo not shown) [WX-C316, hydrochloride]
0.2

Note down Caco-2 assay % basolateral recorded for N=C(N)Nc1ccc(CNC(=O)CNC(=O)C(CO)NC(=O)Nc2cccc(C(=O)O)c2)cc1 (stereo not shown) [WX-C324, hydrochloride]
0.1

Note down Caco-2 assay % basolateral recorded for C[C@@H](C(=O)NCc1ccc(NC(=N)N)cc1)N(C)C(=O)[C@@H](CO)NS(=O)(=O)Cc1ccc(Cl)cc1
0

Note down Caco-2 assay % basolateral recorded for N=C(N)Nc1ccc(CNC(=O)[C@H](CCc2ccccc2)NC(=O)C(CO)NS(=O)(=O)Cc2ccccc2)cc1 (stereo partly shown) [WX-550, hydrochloride]
0

---

assayed.target: FXa (Homo sapiens, UniProt P00742)
Sequence (P00742 235-488 limits assumed): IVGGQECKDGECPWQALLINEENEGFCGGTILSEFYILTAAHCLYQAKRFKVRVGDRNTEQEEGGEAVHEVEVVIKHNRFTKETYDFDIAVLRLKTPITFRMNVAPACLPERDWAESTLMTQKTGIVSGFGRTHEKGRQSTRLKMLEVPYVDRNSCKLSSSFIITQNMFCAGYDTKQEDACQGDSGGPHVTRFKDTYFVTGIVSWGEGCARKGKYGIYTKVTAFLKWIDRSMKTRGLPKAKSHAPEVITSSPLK
Sequence (P00742 41-179 partner limits assumed): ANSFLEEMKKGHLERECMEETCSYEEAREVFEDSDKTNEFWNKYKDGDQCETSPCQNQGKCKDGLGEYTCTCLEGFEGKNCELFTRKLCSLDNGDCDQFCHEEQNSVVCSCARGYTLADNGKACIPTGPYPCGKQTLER
method.summary: In vitro inhibition of FXa (Ki according to Dixon)
Format: biochemical
pKi: −log10 of the molar value. Structures can show the parent of a compound that is named as a salt.
Below is a list of entries, each paired with its recorded pKi value.

Note down pKi recorded for N=C(N)Nc1ccc(CNC(=O)[C@H](CCc2ccccc2)NC(=O)C(CO)NS(=O)(=O)Cc2ccccc2)cc1 (stereo partly drawn) [WX-550, hydrochloride]
< 4.00

Note down pKi recorded for N=C(N)Nc1ccc(S(=O)(=O)NCCNC(=O)C(CO)NS(=O)(=O)Cc2ccccc2)cc1 (stereo not drawn) [WX-568, hydrochloride]
< 3.00

Query molecule follows.
Note down pKi recorded for CN(CC(=O)NCc1ccc(NC(=N)N)cc1)C(=O)C(CO)NS(=O)(=O)Cc1ccccc1 (stereo not drawn)
< 4.00

---

method.summary: Oral bioavailability and plasma kinetics in mice (serum concentration)
Type: in vivo, Balb/c mice
study.conditions: female, Balb/c, mouse, serum, po, 300 mg/kg, 300 mg/kg oral, sample at 40 minutes, read-out: c in the serum 1st analysis
Counter-ions that a name gives are not always drawn.
Class condition met: concentration at 40 min at least 8000 ng/mL. Class condition not met: concentration at 40 min below 8000 ng/mL.

Does concentration at 40 min meet or surpass 8000 ng/mL for CN(CC(=O)NCc1ccc(NC(=N)N)cc1)C(=O)C(CO)NS(=O)(=O)Cc1ccccc1 (stereo not drawn) ?
condition not met

Does concentration at 40 min meet or surpass 8000 ng/mL for N=C(N)Nc1ccc(CNC(=O)CNC(=O)C(CO)NS(=O)(=O)Cc2cccc(Cl)c2)cc1 (stereo not drawn) [WX-C318, hydrochloride] ?
condition not met

Does concentration at 40 min meet or surpass 8000 ng/mL for N=C(N)Nc1ccc(CNC(=O)CNC(=O)C(CO)NS(=O)(=O)Cc2ccc(Cl)cc2)cc1 (stereo not drawn) [WX-C340, hydrochloride] ?
condition not met

Does concentration at 40 min meet or surpass 8000 ng/mL for CC1(C)C2CCC1(CS(=O)(=O)NC(CO)C(=O)NCC(=O)NCc1ccc(NC(=N)N)cc1)C(=O)C2 (stereo not drawn) [WX-C298, hydrochloride] ?
condition met

Does concentration at 40 min meet or surpass 8000 ng/mL for N=C(N)Nc1ccc(CNC(=O)CNC(=O)C(CO)NS(=O)(=O)Cc2cccc([N+](=O)[O-])c2)cc1 (stereo not drawn) [WX-C316, hydrochloride] ?
condition met

Does concentration at 40 min meet or surpass 8000 ng/mL for N=C(N)Nc1ccc(CNC(=O)CNC(=O)[C@@H](CO)NS(=O)(=O)Cc2ccccc2)cc1 [WX-508, hydrochloride] ?
condition not met

---

System: Caco-2 cell monolayers
method.summary: Caco-assay: transport across Caco-2 cell monolayers
Type: in vitro ADME, human
study.conditions: 10 μg/ml apical, four hours; second value column
Counter-ions that a name gives are not always drawn.
recorded.endpoint: % amount in the basolateral compartment (%)
Numeric only. Scale: %

Solved cases (2 shown):
Give Caco-2 cell monolayers % amount in the basolateral compartment for the following compound: CN(CC(=O)NCc1ccc(NC(=N)N)cc1)C(=O)C(CO)NS(=O)(=O)Cc1ccccc1 (stereo not drawn)
0.2

Give Caco-2 cell monolayers % amount in the basolateral compartment for the following compound: N=C(N)Nc1ccc(CNC(=O)CNC(=O)C(CO)NS(=O)(=O)Cc2cccc([N+](=O)[O-])c2)cc1 (stereo not drawn) [WX-C316, hydrochloride]
0.2

Query compound follows.
Give Caco-2 cell monolayers % amount in the basolateral compartment for the following compound: N=C(N)Nc1ccc(CNC(=O)CNC(=O)C(CO)NS(=O)(=O)Cc2ccc(Cl)cc2)cc1 (stereo not drawn) [WX-C340, hydrochloride]
0.2
